protocol-details: Cell Viability - LYMP2-001 (AID 921);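 also: cells exposed to compound for 24 h at 37 °C; nearly all actives have a fitted effect of over 70% in size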
protocol-conditions: LYMP2-001 lymphoblastoid cell viability; series mostly up to 92.2 µM
Inconclusive results are not listed. Calls of active or inactive are those of the source. Calls follow the shape of the dose curve; as a rule, active = well fitted cell-killing curve with a large enough effect; inconclusive = small, poorly fitted or top-dose-only effect; inactive = no such curve, though single readings can be large or run the other way.
measure-name: outcome

Some solved cases for reference:
| compound | measure-name | result |
| --- | --- | --- |
| CCCCOC(=O)c1ccccc1N | outcome | inactive |
| CC(C)Br | outcome | inactive |
| Cc1cc(-c2ccc(N)c(C)c2)ccc1N | outcome | inactive |
| BrCCc1ccccc1 | outcome | inactive |
| O=C(O)c1cc(Cl)ccc1Cl | outcome | inactive |

Task: Given the entry CC(=O)[O-].CC(=O)[O-].CC(=O)[O-].[Cr+3] , report its measured outcome.
Result: inactive

Task: Entry Cl/C=C/Cl has what outcome?
Result: inactive

Task: I am curious: what outcome value has been reported for CCN(CC)N=O ?
Result: inactive

Task: Sample [N-]=[N+]=[N-] — what was its outcome?
Result: inactive

Task: Dear colleague, I am looking for the recorded outcome of the following compound: CCCCC#N
Result: inactive

Task: Dear colleague, I am looking for the recorded outcome of the following compound: CC(Cl)CCl (stereo not drawn)
Result: inactive

Task: GET /values?readout=outcome&item= OCCOCCO
Result: inactive

Task: Report outcome for Nc1ccccc1-c1ccccc1 please.
Result: inactive

Task: Quick one: outcome for C=C(Cl)CSC(=S)N(CC)CC ?
Result: inactive

Task: # get_value(readout='outcome', item= CCOC(=O)CBr )
Result: inactive

Task: For Cl/C=C/CCl , what is its reported outcome?
Result: inactive

Task: Give the measured outcome of COc1ccc(C=O)cc1 .
Result: inactive

Task: Entry under review: CCOC(=O)C1OC1(C)c1ccccc1 (stereo not drawn) . Reported outcome?
Result: inactive

* * *

protocol-details: MultiTox-Fluor Cytotoxicity Assay - LYMP1-003 - Dead Cells (AID 961);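 also: cells exposed to compound for 16 h at 37 °C; nearly all actives have a fitted effect of over 70% in size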
protocol-conditions: LYMP1-003 lymphoblastoid cells, dead-cell protease fluorescence; series mostly up to 92.2 µM
Calls of active or inactive are those of the source. Calls follow the shape of the dose curve; as a rule, active = well fitted cell-killing curve with a large enough effect; inconclusive = small, poorly fitted or top-dose-only effect, or effect the other way; inactive = flat fitted curve, though single readings scatter.
Your response should consist of one outcome taken from active, inactive

| molecule | class-assignment |
| --- | --- |
| O=[N+]([O-])c1cccc(O)c1 | inactive |

Task: Returns: the outcome recorded for CC(C)OS(C)(=O)=O in this assay.
Result: inactive

Task: GET /call?item= Nc1ccc(-c2ccc(N)cc2)cc1 returns the recorded outcome of this test.
Result: inactive

Task: Lab log entry: Cc1ccc2c(C)cccc2c1 — outcome as called in the assay?
Result: inactive

Task: What outcome does the record of this test show for CC1CC(=O)O1 (stereo not drawn) ?
Result: inactive

Task: What is the recorded call for this molecule in the test? ClCCOCOCCCl
Result: inactive

Task: Given O=C(O)C(Br)CBr (stereo not drawn) , state the outcome it received in this test.
Result: inactive

Task: Lab log entry: Clc1cccc(Cl)c1Cl — outcome as called in the assay?
Result: inactive

Task: Hi team, can someone confirm the assay call for ClC(Cl)c1ccccc1 ?
Result: inactive

Task: // param item: C=CC=O ; yields the recorded call
Result: inactive

Task: Which outcome was entered for the molecule Nc1cccc2ccccc12 in this test?
Result: inactive

Task: Please let me know the test result on file for Cc1cccc(N)c1C .
Result: inactive

Task: Which outcome was entered for the molecule CCCBr in this test?
Result: inactive

Where do the numbers come from? From PubChem BioAssay (NCATS).
